- Condition parameters: in n-butyric acid, 323.15 K
Measured endpoint: solubility (mole fraction)
// no unit string in output, number only

Prompt: Fill in: solubility (mole fraction) of O=c1[nH]cc(F)c(=O)[nH]1 is ___
Completion: 0.00143

====

- Condition parameters: in acetic acid, 303.15 K
Measured endpoint: solubility (mole fraction)
// no unit string in output, number only

Prompt: Fill in: solubility (mole fraction) of O=c1[nH]cc(F)c(=O)[nH]1 is ___
Completion: 0.000891

====

- Condition parameters: in formic acid, 298.15 K
Measured endpoint: solubility (mole fraction)
// no unit string in output, number only

Prompt: Fill in: solubility (mole fraction) of O=c1[nH]cc(F)c(=O)[nH]1 is ___
Completion: 0.000827

====

- Condition parameters: in isopropanol, 288.15 K
Measured endpoint: solubility (mole fraction)
// no unit string in output, number only

Prompt: Fill in: solubility (mole fraction) of O=c1[nH]cc(F)c(=O)[nH]1 is ___
Completion: 0.000647

====

- Condition parameters: in propionic acid, 298.15 K
Measured endpoint: solubility (mole fraction)
// no unit string in output, number only

Prompt: Fill in: solubility (mole fraction) of O=c1[nH]cc(F)c(=O)[nH]1 is ___
Completion: 0.000668

====

- Condition parameters: in DMF, 303.15 K
Measured endpoint: solubility (mole fraction)

Prompt: Fill in: solubility (mole fraction) of O=c1[nH]cc(F)c(=O)[nH]1 is ___
Completion: 0.00779

====

- Condition parameters: in isobutanol, 318.15 K
Measured endpoint: solubility (mole fraction)
// no unit string in output, number only

Prompt: Fill in: solubility (mole fraction) of O=c1[nH]cc(F)c(=O)[nH]1 is ___
Completion: 0.00213

====

- Condition parameters: in n-pentanol, 293.15 K
Measured endpoint: solubility (mole fraction)

Prompt: Fill in: solubility (mole fraction) of O=c1[nH]cc(F)c(=O)[nH]1 is ___
Completion: 0.00104

====

- Condition parameters: in propionic acid, 313.15 K
Measured endpoint: solubility (mole fraction)

Prompt: Fill in: solubility (mole fraction) of O=c1[nH]cc(F)c(=O)[nH]1 is ___
Completion: 0.0013

====

- Condition parameters: in water, 293.15 K
Measured endpoint: solubility (mole fraction)

Prompt: Fill in: solubility (mole fraction) of O=c1[nH]cc(F)c(=O)[nH]1 is ___
Completion: 0.00153

====

- Condition parameters: in n-pentanol, 298.15 K
Measured endpoint: solubility (mole fraction)
// no unit string in output, number only

Prompt: Fill in: solubility (mole fraction) of O=c1[nH]cc(F)c(=O)[nH]1 is ___
Completion: 0.0012

====

- Condition parameters: in isopentanol, 288.15 K
Measured endpoint: solubility (mole fraction)
// no unit string in output, number only

Prompt: Fill in: solubility (mole fraction) of O=c1[nH]cc(F)c(=O)[nH]1 is ___
Completion: 0.000823

====

- Condition parameters: in water, 298.15 K
Measured endpoint: solubility (mole fraction)
// no unit string in output, number only

Prompt: Fill in: solubility (mole fraction) of O=c1[nH]cc(F)c(=O)[nH]1 is ___
Completion: 0.00175

====

- Condition parameters: in n-pentanol, 308.15 K
Measured endpoint: solubility (mole fraction)
// no unit string in output, number only

Prompt: Fill in: solubility (mole fraction) of O=c1[nH]cc(F)c(=O)[nH]1 is ___
Completion: 0.00166
